Value source: the supplement of paper PMC9170038

- Test system: MS2 coat protein
- experiment.summary: apparent KD of MS2 coat protein; designed switch direction (-1 OFF switch, 1 ON switch): -1; higher = weaker reporter binding
- particulars: input ligand: microRNA oligo, concentration not stated
Classification field: enter Condition met for apparent KD of MS2 coat protein values not below 10 nM, Condition not met for values below it.

Below, 4 sequences whose answers are already recorded.
item.sequence	study.target	qualitative.label
AAGGGUACUUUCGGAACGACAUGAGGAUCACCCAUGUAGACUGAGGAUAUCUGCUACUAAGGACGGGAGAAGGCAGUGUAAUGU [Ex NG3 #75] (Eterna round: R96, puzzle: Exclusion NG 3)	MS2 coat protein	Condition met
CUGAACCCGGUAGGAUAUAUUGUGGGCAAACAUGGAACAACAUGAGGAUCACCCAUGUAAUUUAGGUAGAAGGGCCAAAAGAUU [Excl-NG2-LRO07] (Eterna round: R96, puzzle: Exclusion NG 2)	MS2 coat protein	Condition met
AUCAGCUCGUCAGGAUAUACAUGCGUGCUUCGGCACGUAUGAUAGAUCACAUGAGGAUCACCCAUGUAGAAGGGACGAGCUGAU [ENG2/4-B3] (Eterna round: R96, puzzle: Exclusion NG 2)	MS2 coat protein	Condition not met
CAAAUGGUUUAAGGAUAUUACAUGAGGAUCACCCAUGUUAUCGGGAUGCUUCUCUUAAAAUACGGUAAGAAGGUAGACCUAAUC [Ceveso] (Eterna round: R96, puzzle: Exclusion NG 2)	MS2 coat protein	Condition met

Query sequence follows.
Assess whether reported apparent KD of MS2 coat protein for GUCGUGCGGCUUUGCUGUACGAGUACAUGAGGAUCACCCAUGUAGGAUAUGGUUCGUUUUGCGUGCCAGAAGGGCGUGCGUUGU [Excl-NG3-LRO14] (Eterna round: R96, puzzle: Exclusion NG 3) sits at 10 nM or higher.
Condition met
